// data source = ChEMBL document CHEMBL1127489

- STUDY_SYSTEM: UniProt P03956
- Sequence (P03956 whole entry): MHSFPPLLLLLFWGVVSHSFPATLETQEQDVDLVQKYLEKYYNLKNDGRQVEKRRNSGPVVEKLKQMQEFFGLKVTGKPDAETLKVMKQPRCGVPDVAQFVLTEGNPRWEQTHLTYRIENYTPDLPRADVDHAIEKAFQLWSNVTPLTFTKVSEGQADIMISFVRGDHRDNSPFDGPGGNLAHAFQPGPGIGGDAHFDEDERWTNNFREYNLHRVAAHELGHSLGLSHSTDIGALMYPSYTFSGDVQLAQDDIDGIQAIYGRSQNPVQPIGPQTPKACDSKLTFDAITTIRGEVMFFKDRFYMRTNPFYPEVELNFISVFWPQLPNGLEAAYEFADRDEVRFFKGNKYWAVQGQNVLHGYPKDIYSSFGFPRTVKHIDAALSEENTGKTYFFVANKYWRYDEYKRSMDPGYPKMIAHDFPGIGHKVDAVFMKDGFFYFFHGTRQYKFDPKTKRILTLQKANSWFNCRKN
- METHOD_DESCRIPTION: Inhibition of degradation of radiolabeled rat skin type I collagen by semipurified human lung fibroblast collagenase
pIC50: −log10 of the molar value.
TEST_READOUT: pIC50

Some compounds with recorded pIC50:
COMPOUND: CC[C@@H](N[C@@H](CC(C)C)C(=O)N[C@@H](Cc1ccc(OC)cc1)C(=O)NC)P(=O)(O)O
ASSAY_RESULT: 6.52
--
COMPOUND: CNC(=O)[C@H](Cc1ccc(OC)cc1)NC(=O)[C@H](CC(C)C)N[C@H](C)P(=O)(O)O
ASSAY_RESULT: 6.59
--
COMPOUND: CNC(=O)[C@H](Cc1ccccc1)NC(=O)[C@H](CC(C)C)N[C@H](CCc1ccccc1)P(=O)(O)O
ASSAY_RESULT: 5.74

1. CC[C@H](N[C@@H](CC(C)C)C(=O)N[C@@H](Cc1nc2ccccc2[nH]1)C(=O)NC)P(=O)(O)O
2. CNC(=O)[C@H](Cc1ccccc1)NC(=O)[C@H](CC(C)C)N[C@@H](CC(C)C)P(=O)(O)O
Exam item: I'd appreciate it if you could identify which of 1 and 2 has the greater pIC50. Please reply using the label of the selected record.
Marked response: 1
